Where a name gives a salt, the structure may show the parent alone.
Below, each of the molecules is paired with its reported melting point value.

>  <MOLECULE>
Cc1cc(CCN2CCN(C)C(=O)C2)cc2c(=O)[nH]c(-c3cc4sccc4cn3)nc12.Cl

>  <melting point>
> 250 °C

$$$$
>  <MOLECULE>
COC1CCN(Cc2cc(C)c3nc(-c4cc5sccc5cn4)[nH]c(=O)c3c2)CC1 (as salt: hydrochloride)

>  <melting point>
205 to 215 °C

$$$$
>  <MOLECULE>
O=c1[nH]c(-c2cc(C(F)(F)F)ccn2)nc2c(Cl)cc(CCN3CCOCC3)cc12 (as salt: hydrochloride)

>  <melting point>
> 250 °C

$$$$
>  <MOLECULE>
Cc1cc(OC2CCC(=O)N(C)C2)cc2c(=O)[nH]c(-c3cc4cccn4cn3)nc12 (centres unmarked)

>  <melting point>
220 to 230 °C

$$$$
>  <MOLECULE>
Cc1cc(CCN2CCCOCC2)cc2c(=O)[nH]c(-c3cnc4ccsc4c3)nc12.Cl

>  <melting point>
> 250 °C

$$$$
>  <MOLECULE>
Cc1cc(CCN2CCS(=O)(=O)CC2)cc2c(=O)[nH]c(-c3cc4sccc4cn3)nc12

>  <melting point>
200 to 212 °C

$$$$
>  <MOLECULE>
Cc1cc(CN2CCOCC2)cc2c(=O)[nH]c(-c3cc4sccc4cn3)nc12.Cl

>  <melting point>
> 250 °C

$$$$
>  <MOLECULE>
O=c1[nH]c(-c2cc(Cl)ccn2)nc2ccc(OCCCc3ccncc3)cc12 (as salt: hydrochloride)

>  <melting point>
232 to 241 °C

$$$$
>  <MOLECULE>
Cc1cccc(-c2nc3ccc(OCCCc4ccncc4)cc3c(=O)[nH]2)n1 (as salt: hydrochloride) [Compound 12, dihydrochloride]

>  <melting point>
> 250 °C

$$$$
>  <MOLECULE>
Cc1cc(CCN2CCC(F)(F)CC2)cc2c(=O)[nH]c(-c3cc(C(F)(F)F)ccn3)nc12.Cl

>  <melting point>
240 to 250 °C

$$$$
>  <MOLECULE>
Cc1cc(OC2CCC(=O)N(C)C2)cc2c(=O)[nH]c(-c3cc4ccsc4cn3)nc12 (centres unmarked)

>  <melting point>
221 to 225 °C

$$$$
